# Test system: HOP-92 (Non-Small Cell Lung Carcinoma)
# experiment.notes: combination Emax (second highest fraction inhibited in the dose matrix, 72 h); higher = more inhibition; extreme values may be limits of the assay
Each entry below carries its reported combination Emax.
Please state the value as a number alone, without comment.

Answered cases to consult:
molecule	tested.target	combination Emax
CC1(C)CCC(CN2CCN(c3ccc(C(=O)NS(=O)(=O)c4ccc(NCC5CCOCC5)c([N+](=O)[O-])c4)c(Oc4cnc5[nH]ccc5c4)c3)CC2)=C(c2ccc(Cl)cc2)C1 [Venetoclax] + Cn1cnc2c(F)c(Nc3ccc(Br)cc3Cl)c(C(=O)NOCCO)cc21 [Selumetinib] (first compound max 1 µM, 7x7, partner max 3 µM)	HOP-92 (Non-Small Cell Lung Carcinoma)	0.148
CC(=O)c1c(C)c2cnc(Nc3ccc(N4CCNCC4)cn3)nc2n(C2CCCC2)c1=O [Palbociclib] + Cc1c2c(nn1C)CSCc1cc(n(C)n1)CSc1cc(c3ccccc3c1)OCCCc1c(C(=O)O)n(C)c3c-2c(Cl)ccc13 [AZD5991] (first compound max 10 µM, 7x7, partner max 1 µM)	HOP-92 (Non-Small Cell Lung Carcinoma)	0.293

# ---- query molecule ----
Please give the measured combination Emax for this molecule: Cn1cnc2c(F)c(Nc3ccc(Br)cc3Cl)c(C(=O)NOCCO)cc21 [Selumetinib] + C=CCn1c(=O)c2cnc(Nc3ccc(N4CCN(C)CC4)cc3)nc2n1-c1cccc(C(C)(C)O)n1 [AZD1775] (first compound max 10 µM, partner max 1 µM)
0.503
